Sourced from BigSolDB 2.1

Conditions: in acetonitrile, 303.15 K

{"columns": ["COMPOUND STRING", "solubility (mole fraction)"],
 "data": [
  ["NS(=O)(=O)Cc1noc2ccccc12", 0.0149]
]}

---

Details: in isopropanol, 303.15 K

{"columns": ["COMPOUND STRING", "solubility (mole fraction)"],
 "data": [
  ["NS(=O)(=O)Cc1noc2ccccc12", 0.00207]
]}

---

Settings: in 1,4-dioxane, 313.15 K

{"columns": ["COMPOUND STRING", "solubility (mole fraction)"],
 "data": [
  ["NS(=O)(=O)Cc1noc2ccccc12", 0.0563]
]}

---

Details: in isopropanol, 288.15 K
METRIC: solubility (mole fraction)

{"columns": ["COMPOUND STRING", "REPORTED MEASUREMENT"],
 "data": [
  ["NS(=O)(=O)Cc1noc2ccccc12", 0.00122]
]}

---

Settings: in 2-butanone, 278.15 K
METRIC: solubility (mole fraction)

{"columns": ["COMPOUND STRING", "REPORTED MEASUREMENT"],
 "data": [
  ["NS(=O)(=O)Cc1noc2ccccc12", 0.0154]
]}

---

Conditions: in 1,4-dioxane, 288.15 K

{"columns": ["COMPOUND STRING", "solubility (mole fraction)"],
 "data": [
  ["NS(=O)(=O)Cc1noc2ccccc12", 0.024]
]}

---

Details: in ethyl acetate, 298.15 K
METRIC: solubility (mole fraction)

{"columns": ["COMPOUND STRING", "REPORTED MEASUREMENT"],
 "data": [
  ["NS(=O)(=O)Cc1noc2ccccc12", 0.00882]
]}

---

Conditions: in 2-butanone, 303.15 K
METRIC: solubility (mole fraction)

{"columns": ["COMPOUND STRING", "REPORTED MEASUREMENT"],
 "data": [
  ["NS(=O)(=O)Cc1noc2ccccc12", 0.0319]
]}

---

Conditions: in cyclohexanone, 293.15 K
METRIC: solubility (mole fraction)

{"columns": ["COMPOUND STRING", "REPORTED MEASUREMENT"],
 "data": [
  ["NS(=O)(=O)Cc1noc2ccccc12", 0.0155]
]}

---

Conditions: in 2-butanone, 288.15 K
METRIC: solubility (mole fraction)

{"columns": ["COMPOUND STRING", "REPORTED MEASUREMENT"],
 "data": [
  ["NS(=O)(=O)Cc1noc2ccccc12", 0.0209]
]}

---

Conditions: in isopropanol, 308.15 K
METRIC: solubility (mole fraction)

{"columns": ["COMPOUND STRING", "METRIC", "REPORTED MEASUREMENT"],
 "data": [
  ["NS(=O)(=O)Cc1noc2ccccc12", "solubility (mole fraction)", 0.00241]
]}

---

Details: in methanol, 288.15 K
METRIC: solubility (mole fraction)

{"columns": ["COMPOUND STRING", "REPORTED MEASUREMENT"],
 "data": [
  ["NS(=O)(=O)Cc1noc2ccccc12", 0.00326]
]}

---

Conditions: in ethyl acetate, 313.15 K
METRIC: solubility (mole fraction)

{"columns": ["COMPOUND STRING", "REPORTED MEASUREMENT"],
 "data": [
  ["NS(=O)(=O)Cc1noc2ccccc12", 0.0118]
]}

---

Settings: in methanol, 283.15 K
METRIC: solubility (mole fraction)

{"columns": ["COMPOUND STRING", "REPORTED MEASUREMENT"],
 "data": [
  ["NS(=O)(=O)Cc1noc2ccccc12", 0.00298]
]}

---

Details: in ethanol, 308.15 K
METRIC: solubility (mole fraction)

{"columns": ["COMPOUND STRING", "REPORTED MEASUREMENT"],
 "data": [
  ["NS(=O)(=O)Cc1noc2ccccc12", 0.0033]
]}

---

Details: in methanol, 293.15 K

{"columns": ["COMPOUND STRING", "solubility (mole fraction)"],
 "data": [
  ["NS(=O)(=O)Cc1noc2ccccc12", 0.00353]
]}

---

Conditions: in n-butanol, 273.15 K

{"columns": ["COMPOUND STRING", "solubility (mole fraction)"],
 "data": [
  ["NS(=O)(=O)Cc1noc2ccccc12", 0.00017]
]}

---

Settings: in n-butanol, 303.15 K
METRIC: solubility (mole fraction)

{"columns": ["COMPOUND STRING", "REPORTED MEASUREMENT"],
 "data": [
  ["NS(=O)(=O)Cc1noc2ccccc12", 0.00122]
]}
